I'd appreciate it if you could supply TGI values for the items below.
Test system: SK-OV-3 ovarian
assay.explanation: NCI tumour cell line growth inhibition, 48 h

entry_smiles=Nc1ccc(C(=O)/C=C/c2ccccc2O)cc1 target_system="SK-OV-3 ovarian" property_name=TGI endpoint_result="> 100 µM"
entry_smiles=COc1ccc(OC)c2c(=O)c3ccccc3[nH]c12 target_system="SK-OV-3 ovarian" property_name=TGI endpoint_result="> 100 µM"
entry_smiles=COC(=O)[C@@H]1COC(=O)N1 target_system="SK-OV-3 ovarian" property_name=TGI endpoint_result="> 100 µM"
entry_smiles=CC(=O)N[C@@H](Cc1ccc(O)cn1)C(=O)NC1CCCCC1 target_system="SK-OV-3 ovarian" property_name=TGI endpoint_result="> 100 µM"
entry_smiles=COc1ccc2c(c1)[n+](=O)c(C(C)=O)c(C)n2[O-] target_system="SK-OV-3 ovarian" property_name=TGI endpoint_result="> 100 µM"

State the recorded TGI for every item in the following list.
1. O=c1cccccc1[O-].O=c1cccccc1[O-].O=c1cccccc1[O-].[Sm+3]
2. CC1(C)CC[C@]2(C(=O)O)CC[C@]3(C)C(=CC[C@@H]4[C@@]5(C)C/C(=C/c6ccco6)C(=O)C(C)(C)[C@@H]5CC[C@]43C)[C@@H]2C1
3. Cc1cc(=O)n2nc(CSc3nnc(Sc4cc(O)ccc4O)s3)sc2n1
4. COc1ccc(/C=N/NC(=S)Nc2cc(C)ccc2OC)cc1
5. CCSc1ncc(Br)c(Sc2nc(N)nc3nc[nH]c23)n1

1: > 100 µM; 2: 79.4 µM; 3: > 100 µM; 4: > 100 µM; 5: 48.9 µM

* * *

Tested on: SK-MEL-28 melanoma
assay.explanation: NCI tumour cell line growth inhibition, 48 h
Provide the reported TGI of each item.

Illustrative cases are given below, each with its answer.
compound="COC(=O)CC1CC2(C(=O)OC)c3[nH]c4ccccc4c3CCN2C1=O (stereo not drawn)" property_name=TGI endpoint_result="> 100 µM"
compound="COc1c(O)c2c3c(c1OC)-c1ccccc1CC3N(S(=O)(=O)c1ccc(C)cc1)CC2 (stereo not drawn)" property_name=TGI endpoint_result="> 50 µM"
compound=CCSc1ncc(Br)c(Sc2nc(N)nc3nc[nH]c23)n1 property_name=TGI endpoint_result="> 100 µM"
compound=CC(=O)O[C@H]1C(=O)[C@@]2(C)[C@H]([C@H](OC(=O)c3ccco3)[C@]3(O)C[C@H](OC(=O)[C@H](O)[C@@H](NC(=O)c4ccccc4)c4ccccc4)C(C)=C1C3(C)C)[C@]1(OC(C)=O)CO[C@@H]1C[C@@H]2O property_name=TGI endpoint_result="> 25 µM"
compound="COC(=O)C(NC(=O)c1ccccc1)C(c1c(O)cc(O)cc1O)P(=O)(OC)OC (stereo not drawn)" property_name=TGI endpoint_result="> 100 µM"

Give TGI for each listed item.
1. Clc1ccc2c(NCCCN3CCN(c4nc(N5CCOCC5)nc5ccccc45)CC3)ccnc2c1
2. COc1cc2c(cc1OCCCOc1ccc(-c3cc4ccccc4c4ccccc34)cc1)N=C[C@@H]1CCCN1C2=O
3. N/C(=N\C(N)=N\c1nc2ccccc2s1)c1cnccn1

["3.37 µM", "1.38 µM", "6.06 µM"]

* * *

Test system: SK-MEL-28 melanoma
assay.explanation: NCI tumour cell line growth inhibition, 48 h
Assign TGI to each entry below.

A selection of reference data follows.
compound=CC(=O)[O-].[Mn+3].[O-]c1ccc(Cl)cc1C=NCCN=Cc1cc(Cl)ccc1[O-] target_system="SK-MEL-28 melanoma" property_name=TGI endpoint_result="> 100 µM"
compound=COc1cc2cc3c(c(O)c2c(O)c1-c1c(OC)cc2cc4c(c(O)c2c1O)C(=O)O[C@H](C)C4)C(=O)O[C@H](C)C3 target_system="SK-MEL-28 melanoma" property_name=TGI endpoint_result="99.1 µM"
compound=Cc1ccnc(Nc2ccc([N+](=O)[O-])c(NCCN3CCOCC3)n2)c1 target_system="SK-MEL-28 melanoma" property_name=TGI endpoint_result="30.3 µM"
compound=Cc1cc(C)n2c(nc3ccccc32)c1C#N target_system="SK-MEL-28 melanoma" property_name=TGI endpoint_result="> 100 µM"

Parameters: items (list). Returns: TGI for each item.
1. O=c1[nH]c2ccc([N+](=O)[O-])cc2nc1/C(=N/Nc1ccccc1)C(O)c1ccco1 (centres undefined)
2. c1cc2c(cc1[C@@H]1OC[C@@H]3[C@H]1CO[C@H]3c1ccc3c(c1)OCO3)OCO2
3. CC1CC(C)C(C(O)CC2CC(=O)N(c3ccccc3)C(=O)C2)C(O)C1 (centres undefined)
4. COc1ccc(OCC(O)CN2CCN(c3ccc(Cl)cc3)CC2)cc1 (centres undefined)
5. CC[C@]1(Cc2ccc(OC)c(OC)c2)C=[N+]([O-])O[C@H](OC2CCCC2(c2ccccc2)c2ccccc2)[C@@H]1OC(=O)C(C)(C)C (some centres undefined)
6. CC(=O)N1c2cc(N=NN(C)C)ccc2NC(=O)CC1C (centres undefined)
7. CC(=O)N[C@@H](Cc1ccc(O)cn1)C(=O)NC1CCCCC1

1. > 100 µM
2. > 100 µM
3. > 100 µM
4. > 100 µM
5. 4.22 µM
6. > 100 µM
7. > 100 µM
